testedSystem: human TRPV4 (Homo sapiens, UniProt Q9HBA0)
Construct: host or cells: tetracycline-inducible Flp-In T-REx 293 cells
Sequence (Q9HBA0 whole entry): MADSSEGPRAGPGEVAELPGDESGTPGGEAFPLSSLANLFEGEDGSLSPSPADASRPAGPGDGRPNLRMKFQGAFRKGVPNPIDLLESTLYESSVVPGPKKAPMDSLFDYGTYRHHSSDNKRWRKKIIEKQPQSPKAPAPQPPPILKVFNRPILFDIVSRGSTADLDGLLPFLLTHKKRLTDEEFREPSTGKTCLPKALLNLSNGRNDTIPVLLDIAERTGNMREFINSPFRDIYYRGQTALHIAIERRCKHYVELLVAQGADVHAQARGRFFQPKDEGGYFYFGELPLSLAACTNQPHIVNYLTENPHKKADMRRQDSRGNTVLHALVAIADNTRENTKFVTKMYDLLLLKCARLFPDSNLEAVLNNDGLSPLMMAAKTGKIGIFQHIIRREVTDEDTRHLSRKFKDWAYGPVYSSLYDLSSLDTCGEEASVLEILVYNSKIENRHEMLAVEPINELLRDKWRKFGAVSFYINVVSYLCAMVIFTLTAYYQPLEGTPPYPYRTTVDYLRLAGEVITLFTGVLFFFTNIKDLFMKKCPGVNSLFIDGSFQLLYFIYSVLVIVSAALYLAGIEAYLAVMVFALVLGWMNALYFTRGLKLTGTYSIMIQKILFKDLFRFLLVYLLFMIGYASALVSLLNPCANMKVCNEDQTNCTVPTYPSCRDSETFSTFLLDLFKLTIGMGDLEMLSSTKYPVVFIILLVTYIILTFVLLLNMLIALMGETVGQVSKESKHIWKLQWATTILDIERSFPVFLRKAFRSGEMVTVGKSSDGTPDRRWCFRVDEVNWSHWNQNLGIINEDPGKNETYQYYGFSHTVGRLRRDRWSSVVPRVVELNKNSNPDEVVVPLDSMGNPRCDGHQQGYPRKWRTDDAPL
assayDetails: Hypotonicity-induced Ca2+ influx (Fluo-4, FDSS)
Format: cell-based
measurementParameters: Flp-In T-REx 293 cells stably expressing human TRPV4, compounds listed by potency bin (<10 nM Tables 96-1/96-2, <3 nM Table 97)
Measured IC50, listed per entry.

As a guide, the following entries are already answered.
INSERT INTO assay_data (compound, reading) VALUES
  ('O=C([C@H](O)c1cccc(C(F)(F)F)c1)N1CCCc2nc(C3(c4cncc(-c5ccccc5)c4)CC3)[nH]c(=O)c2C1 [43-1]', '< 0.003 µM'),
  ('O=C([C@H](O)c1cccc(C(F)(F)F)c1)N1CCc2nc(C3(c4cc(C5CCC(F)(F)CC5)cs4)CC3)[nH]c(=O)c2C1 [26-1]', '< 0.01 µM'),
  ('O=C(C(O)c1cccc(-c2cccc(C(F)(F)F)n2)c1)N1CCc2nc(C3(c4ccccc4)CC3)[nH]c(=O)c2C1 (stereo not shown) [44-4]', '< 0.01 µM'),
  ('N#Cc1cc(F)cc(-c2cccc(C3(c4nc5c(c(=O)[nH]4)CN(C(=O)[C@H](O)c4cccc(C(F)(F)F)c4)CCC5)CC3)c2)c1 [42-69]', '< 0.01 µM'),
  ('Cc1cc(C)cc(-c2cccc([C@@H](O)C(=O)N3CCCc4nc(C5(c6ccccc6)CC5)[nH]c(=O)c4C3)c2)c1 [49-49]', '< 0.01 µM');

Field IC50 (entry CC(C)c1cncc(C2(c3nc4c(c(=O)[nH]3)CN(C(=O)C(O)c3cccc(-c5cccc(C(C)(C)C)c5)c3)CCC4)CC2)c1 (stereo not shown) [55-1] ) reads < 0.01 µM

Field IC50 (entry O=C(Cc1cccc(-c2ccc(C(F)(F)F)cc2)c1)N1CCCc2nc(C3(c4cccc(Cl)c4)CC3)[nH]c(=O)c2C1 [17-128] ) reads < 0.01 µM

Field IC50 (entry O=C([C@H](O)c1cccc(C(F)(F)F)c1)N1CCCc2nc(C3(c4cc(C5CCC(F)(F)CC5)cs4)CC3)[nH]c(=O)c2C1 [30-3] ) reads < 0.003 µM

Field IC50 (entry O=C([C@H](O)c1cccc(C(F)(F)F)c1)N1CCCc2nc(C3(c4cc(C5CCCC5)cs4)CC3)[nH]c(=O)c2C1 [30-1] ) reads < 0.003 µM

Field IC50 (entry O=C([C@H](O)c1cccc(C(F)(F)F)c1)N1CCCc2nc(C3(c4cccc(C5=CCN(C(=O)C6(C(F)(F)F)CC6)CC5)c4)CC3)[nH]c(=O)c2C1 [42-72] ) reads < 0.01 µM

Field IC50 (entry O=C(Cc1ccccc1)N1CCC(c2cccc(C3(c4nc5c(c(=O)[nH]4)CN(C(=O)[C@H](O)c4cccc(C(F)(F)F)c4)CCC5)CC3)c2)CC1 [31-9] ) reads < 0.01 µM

Field IC50 (entry O=C([C@H](O)c1cccc(C(F)(F)F)c1)N1CCCc2nc(C3(c4cccc(-c5cnn(C6CC6)c5)c4)CC3)[nH]c(=O)c2C1 [42-6] ) reads < 0.003 µM

Field IC50 (entry O=C([C@H](O)c1cccc(-c2ccc(OCc3ccccc3)cc2)c1)N1CCc2nc(C3(c4ccccc4)CC3)[nH]c(=O)c2C1 [44-107] ) reads < 0.01 µM

----------
testedSystem: human TRPV4 (Homo sapiens, UniProt Q9HBA0)
Construct: host or cells: tetracycline-inducible Flp-In T-REx 293 cells
assayDetails: Hypotonicity-induced Ca2+ influx (Fluo-4, FDSS)
Type: cell-based
measurementParameters: Flp-In T-REx 293 cells stably expressing human TRPV4, compounds listed by potency bin (<10 nM Tables 96-1/96-2, <3 nM Table 97)
measuredAttribute: IC50

As a guide, the following entries are already answered.
INSERT INTO results (molecule, testedsystem, reading) VALUES
  ('O=C([C@H](O)c1cccc(-c2cccc(C(F)(F)F)n2)c1)N1CCCc2nc(C3(c4ccccc4)CC3)[nH]c(=O)c2C1', 'human TRPV4 (Homo sapiens, UniProt Q9HBA0)', '< 3 nM'),
  ('O=C(C(O)c1cccc(-c2cccc(C(F)(F)F)c2)c1)N1CCCc2nc(C3(c4ccccc4)CC3)[nH]c(=O)c2C1 (stereo not drawn)', 'human TRPV4 (Homo sapiens, UniProt Q9HBA0)', '< 10 nM'),
  ('O=C([C@H](O)c1cccc(C(F)(F)F)c1)N1CCc2nc(C3(c4cc(C5CCCCC5)cs4)CC3)[nH]c(=O)c2C1', 'human TRPV4 (Homo sapiens, UniProt Q9HBA0)', '< 3 nM'),
  ('N#Cc1ccc(-c2cccc([C@@H](O)C(=O)N3CCCc4nc(C5(c6cccc(Cl)c6)CC5)[nH]c(=O)c4C3)c2)cc1', 'human TRPV4 (Homo sapiens, UniProt Q9HBA0)', '< 3 nM'),
  ('O=C([C@H](O)c1cccc(C(F)(F)F)c1)N1CCCc2nc(C3(c4cc(-c5cnsc5)cs4)CC3)[nH]c(=O)c2C1', 'human TRPV4 (Homo sapiens, UniProt Q9HBA0)', '< 10 nM');

Field IC50 (entry "O=C([C@H](O)c1cccc(C(F)(F)F)c1)N1CCCc2nc(C3(c4ccccc4)CC3)[nH]c(=O)c2C1" ) reads < 10 nM

Field IC50 (entry "N#Cc1cc(Cl)cc(-c2cccc([C@@H](O)C(=O)N3CCc4nc(C5(c6cccc(Cl)c6)CC5)[nH]c(=O)c4C3)c2)c1" ) reads < 3 nM

Field IC50 (entry "O=C([C@H](O)c1cccc(-c2cccc(Cl)c2)c1)N1CCCc2nc(C3(c4cccc(-c5csc6ccccc56)c4)CC3)[nH]c(=O)c2C1" ) reads < 10 nM

Field IC50 (entry "O=C([C@H](O)c1cccc(C(F)(F)F)c1)N1CCCc2nc(C3(c4cccc(C(F)(F)F)c4)CC3)[nH]c(=O)c2C1" ) reads < 3 nM

----------
testedSystem: human TRPV4 (Homo sapiens)
Construct: host or cells: tetracycline-inducible Flp-In T-REx 293 cells
assayDetails: Hypotonicity-induced Ca2+ influx (Fluo-4, FDSS)
Assay type: cell-based
measurementParameters: Flp-In T-REx 293 cells expressing human TRPV4, examples listed under heading 'Human IC50<50 nM'
measuredAttribute: IC50

As a guide, the following entries are already answered.
INSERT INTO measurements (compound, reading) VALUES
  ('O=C([C@H](O)c1cccc(-c2cccc(OC(F)(F)F)c2)c1)N1CCCc2c(nc(C3(c4ccccc4)CC3)[nH]c2=O)C1', '< 50 nM'),
  ('O=C([C@H](O)c1cccc(C(F)(F)F)c1)N1CCCc2nc(C3(c4cccc(C5=CCN(C(=O)C6(C(F)(F)F)CC6)CC5)c4)CC3)[nH]c(=O)c2C1', '< 50 nM'),
  ('O=C([C@H](O)c1cccc(C(F)(F)F)c1)N1CCCc2nc(C3(c4cccc(-c5cccc6ccccc56)c4)CC3)[nH]c(=O)c2C1', '< 50 nM'),
  ('N#Cc1ccc(-c2cccc(C3(c4nc5c(c(=O)[nH]4)CN(C(=O)[C@H](O)c4cccc(C(F)(F)F)c4)CCC5)CC3)c2)cc1', '< 50 nM');

Field IC50 (entry "O=C([C@H](O)c1cccc(C(F)(F)F)c1)N1CCc2nc(C3(c4cccc(Oc5ccccc5)c4)CC3)[nH]c(=O)c2C1" ) reads < 50 nM

Field IC50 (entry O=C(C(O)c1cccc(-c2cccc(OC(F)(F)F)c2)c1)N1CCc2nc(C3(c4cccc(Cl)c4)CC3)[nH]c(=O)c2C1 (centres unmarked) ) reads < 50 nM

Field IC50 (entry "O=C(N1CCCc2nc(C3(c4ccccc4)CC3)[nH]c(=O)c2C1)C(F)(F)c1cccc(C(F)(F)F)c1" ) reads < 50 nM

----------
Measured pIC50, listed per entry.
testedSystem: human TRPV4 (Homo sapiens, UniProt Q9HBA0)
Construct: host or cells: tetracycline-inducible Flp-In T-REx 293 cells
assayDetails: Hypotonicity-induced Ca2+ influx (Fluo-4, FDSS)
Format: cell-based
measurementParameters: Flp-In T-REx 293 cells expressing human TRPV4, examples listed under heading 'Human IC50<50 nM'
pIC50: −log10 of the molar value.

INSERT INTO measurements (molecule, reading) VALUES
  ('N#Cc1cc(Cl)cc(-c2cccc([C@@H](O)C(=O)N3CCc4nc(C5(c6cccc(Cl)c6)CC5)[nH]c(=O)c4C3)c2)c1', '> 7.30'),
  ('O=C([C@H](O)c1cccc(-c2ccc(Cl)c(OC(F)(F)F)c2)c1)N1CCCc2nc(C3(c4ccccc4)CC3)[nH]c(=O)c2C1', '> 7.30'),
  ('O=C(C(O)c1cccc(C(F)(F)F)c1F)N1CCc2nc(C3(c4cccc(F)c4)CC3)[nH]c(=O)c2C1 (centres unmarked)', '> 7.30'),
  ('CC(C)c1cccc(C2(c3nc4c(c(=O)[nH]3)CN(C(=O)C(F)(F)c3cccc(C(F)(F)F)c3)CCC4)CC2)c1', '> 7.30'),
  ('O=C(Cc1cccc(-c2cccc(C(F)(F)F)c2)c1)N1CCCc2c(nc(C3(c4ccccc4)CC3)[nH]c2=O)C1', '> 7.30');

Field pIC50 (entry "O=C([C@H](O)c1cccc(Cl)c1)N1CCCc2nc(C3(c4cccc(Br)c4)CC3)[nH]c(=O)c2C1" ) reads > 7.30

Field pIC50 (entry "O=C([C@H](O)c1cccc(Cl)c1)N1CCCc2nc(C3(c4cccc(-c5ccc(Cl)cc5)c4)CC3)[nH]c(=O)c2C1" ) reads > 7.30

Field pIC50 (entry "O=C(Cc1cccc(C(F)(F)F)c1F)N1CCCc2nc(C3(c4ccccc4)CC3)[nH]c(=O)c2C1" ) reads > 7.30

Field pIC50 (entry O=C(C(O)c1cccc(C(F)(F)F)c1F)N1CCCc2nc(C3(c4cccs4)CC3)[nH]c(=O)c2C1 (centres unmarked) ) reads > 7.30

Field pIC50 (entry "O=C(Cc1cccc(C(F)(F)F)c1F)N1CCCc2nc(C3(c4cccc(Cl)c4)CC3)[nH]c(=O)c2C1" ) reads > 7.30

Field pIC50 (entry "O=C([C@H](O)c1cccc(C(F)(F)F)c1)N1CCCc2nc(C3(c4cccc(-c5cnc(-c6ccccc6)s5)c4)CC3)[nH]c(=O)c2C1" ) reads > 7.30

Field pIC50 (entry "O=C([C@H](O)c1cccc(C(F)(F)F)c1)N1CCCc2nc(C3(c4cccc(C5CCN(CC(F)(F)F)CC5)c4)CC3)[nH]c(=O)c2C1" ) reads > 7.30

Field pIC50 (entry "O=C([C@H](O)c1cccc(-c2csc3ccccc23)c1)N1CCCc2nc(C3(c4cccc(Cl)c4)CC3)[nH]c(=O)c2C1" ) reads > 7.30

Field pIC50 (entry "O=C([C@H](O)c1cccc(-c2coc3ccccc23)c1)N1CCc2nc(C3(c4ccccc4)CC3)[nH]c(=O)c2C1" ) reads > 7.30

Source listed as patent US12673946B2.
